Parameter: activity at 5 ppm. Scope: all listed entries.
System: Arabidopsis thaliana
assayText: Root growth-promoting activity test (Example 9)
Format: in vivo
conditionParameters: Arabidopsis thaliana, 240 h; test final concentration 5 ppm (concentration with highest root growth rate); main root length vs control section, 22° C., 10 days
Description: Enshi standard medium having the following composition (see Table 10) was prepared. […] Then, the length of main roots (average main roots) generated from the seeds of Arabidopsis thaliana was measured. An average of eight repeats was determined, and a root growth rate was determined according to the following equation. […]
Your answer is read as %, so omit the unit and give the number.

Example entries begin here.
Clc1ccc2nc(NCCSSCCNc3nc(-c4ccccc4)c4cc(Cl)ccc4n3)nc(-c3ccccc3)c2c1 [Ic3-15] ... 131
Clc1ccc2nc(NCc3ccco3)nc(-c3ccccc3)c2c1 [Ic3-16] ... 155
CONc1nc(-c2ccccc2)c2cc(Cl)ccc2n1 [Ic3-32] ... 123

Q: State its activity at 5 ppm for this compound: OCCSc1nc(-c2ccccc2)c2cc(Cl)ccc2n1 [Ie3-1]
Ans: 121

Q: State its activity at 5 ppm for this compound: CCOC(=O)CNc1nc(-c2ccccc2)c2cc(Cl)ccc2n1 [Ic3-33]
Ans: 124

Q: State its activity at 5 ppm for this compound: Clc1ccc2nc(Cl)nc(-c3ccccc3)c2c1 [Ia1-3, 2,6-dichloro-4-phenylquinazoline]
Ans: 138
